From: patent US20110065632A1

Quick reference for pKi among some molecules
system: hUTII (Homo sapiens, UniProt Q9UKP6)
Sequence (Q9UKP6 whole entry): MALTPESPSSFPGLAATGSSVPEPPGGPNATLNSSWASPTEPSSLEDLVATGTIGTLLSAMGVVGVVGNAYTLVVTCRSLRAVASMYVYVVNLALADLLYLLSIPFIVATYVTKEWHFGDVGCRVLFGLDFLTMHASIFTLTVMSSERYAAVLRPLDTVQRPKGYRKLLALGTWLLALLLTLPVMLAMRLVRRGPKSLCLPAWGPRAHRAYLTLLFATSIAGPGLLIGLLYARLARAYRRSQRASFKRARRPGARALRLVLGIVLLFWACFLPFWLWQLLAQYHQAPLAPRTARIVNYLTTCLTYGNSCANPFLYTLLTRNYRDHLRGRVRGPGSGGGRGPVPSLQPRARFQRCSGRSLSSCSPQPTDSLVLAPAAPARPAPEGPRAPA
protocolDescription: hUTII inhibition constant
Assay type: binding
measurementContext: read-out: hUTII Ki
Protocol: Using the discussed assays, the inhibition constants (Ki) for the five human somatostatin receptors (hSSTR1-hSSTR5) and the dopamine-2 receptor (hUTII and hDA2) were measured for the exemplified somatostatin-dopamine conjugates, as follows: […]
Bridge positions count the residues as written; N and C are the ends. Square brackets hold non-standard residues; d marks the D form. Peptide text beside a SMILES is read from it. * marks the point of attachment. X1 = CCCN1C[C@H](CSCC(=O)*)C[C@@H]2c3cccc4[nH]cc(c34)C[C@H]21; Abu = CC[C@H](N)C(=O)O
For clarity, pKi is expressed as the negative log10 of concentration in mol/L.

molecule: CCCN1C[C@H](CSCC(=O)NCCN2CCN(CC(=O)N[C@H](Cc3ccccc3)C(=O)N[C@H]3CSSC[C@@H](C(=O)N[C@H](C(N)=O)[C@@H](C)O)NC(=O)[C@H](CC)NC(=O)[C@H](CCCCN)NC(=O)[C@@H](Cc4c[nH]c5ccccc45)NC(=O)[C@H](Cc4ccc(O)cc4)NC3=O)CC2)C[C@@H]2c3cccc4[nH]cc(c34)C[C@H]21
system: hUTII (Homo sapiens, UniProt Q9UKP6)
pKi: 5.82
--
molecule: CC[C@@H]1NC(=O)[C@H](CCCCN)NC(=O)[C@@H](Cc2c[nH]c3ccccc23)NC(=O)[C@H](Cc2ccc(O)cc2)NC(=O)[C@@H](NC(=O)[C@@H](Cc2ccccc2)NC(=O)CN2CCN(CCNC(=O)CSC[C@@H]3C[C@@H]4c5cccc6[nH]cc(c56)C[C@H]4N(C)C3)CC2)CSSC[C@@H](C(=O)N[C@H](C(N)=O)[C@@H](C)O)NC1=O
system: hUTII (Homo sapiens, UniProt Q9UKP6)
pKi: 5.92
--
molecule: CCCN1C[C@H](CSCC(=O)NCCCC[C@H](NC(C)=O)C(=O)N[C@H](Cc2ccc(O)cc2)C(=O)N[C@H](Cc2ccc(O)cc2)C(=O)N[C@H]2CSSC[C@@H](C(=O)N[C@H](C(N)=O)[C@@H](C)O)NC(=O)[C@H](CC)NC(=O)[C@H](CCCCN)NC(=O)[C@@H](Cc3c[nH]c4ccccc34)NC(=O)[C@H](Cc3ccc(O)cc3)NC2=O)C[C@@H]2c3cccc4[nH]cc(c34)C[C@H]21 [Example 11] (Ac-K(X1)[dY][dY]CY[dW]K[Abu]CT-NH2; disulfide 4-9)
system: hUTII (Homo sapiens, UniProt Q9UKP6)
pKi: 7.19

// below: pKi requested for another molecule
Challenge: Identify pKi associated with the molecule "CCCN1C[C@H](CSCC(=O)N[C@H](Cc2ccccc2)C(=O)N[C@H]2CSSC[C@@H](C(=O)N[C@H](C(N)=O)[C@@H](C)O)NC(=O)[C@H](C(C)C)NC(=O)[C@H](CCCCN)NC(=O)[C@@H](Cc3c[nH]c4ccccc34)NC(=O)[C@H](Cc3ccc(OC(=O)CSC[C@@H]4C[C@@H]5c6cccc7[nH]cc(c67)C[C@H]5N(CCC)C4)c(I)c3)NC2=O)C[C@@H]2c3cccc4[nH]cc(c34)C[C@H]21"
Response given: 7.13
